- Assay Target: T1, recombinant ILT2 (human) (human, UniProt Q8NHL6 24-461)
- T1 construct: also called recombinant ILT2 peptide; ILT2 protein
- T1 sequence (Q8NHL6 24-461 limits assumed): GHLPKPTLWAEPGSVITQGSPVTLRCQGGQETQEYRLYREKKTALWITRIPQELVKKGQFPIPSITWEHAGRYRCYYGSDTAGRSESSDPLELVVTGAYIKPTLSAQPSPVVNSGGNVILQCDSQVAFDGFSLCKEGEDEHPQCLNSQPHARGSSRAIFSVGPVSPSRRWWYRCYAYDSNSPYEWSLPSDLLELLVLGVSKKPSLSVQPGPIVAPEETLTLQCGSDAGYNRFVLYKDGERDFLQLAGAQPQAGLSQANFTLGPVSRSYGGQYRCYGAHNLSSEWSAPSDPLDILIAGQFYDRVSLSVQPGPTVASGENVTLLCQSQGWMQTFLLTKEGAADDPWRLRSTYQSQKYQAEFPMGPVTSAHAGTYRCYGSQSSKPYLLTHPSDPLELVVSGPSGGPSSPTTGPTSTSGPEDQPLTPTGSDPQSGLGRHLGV
- Assay: SPR (Biacore T200), HEK EBNA supernatants on recombinant ILT2 peptide

{"columns": ["Binder", "Readout Units", "Kd"],
 "data": [
  ["humanized 15G8 VH2/Vk1 (antibody, IgG4, V domains shown, Humanized IgG4 (S228P, L235E), kappa; tested as supernatant of transiently transfected HEK EBNA cells) VH: DVQLQGSGPGLVKPSETLSLTCSVTGYSITSGYYWNWIRQFPGKKLEWMGYISYDGSNNYNPSLKNRITISRDTSKNQFSLKLSSVTAADTATYYCAHGYSYYYAMDAWGQGTTVTVSS VL: DIQMTQSTSSLSASVGDRVTITCRTSQDISNYLNWYQQKPGKAVKLLISYTSRLHSGVPSRFSGSGSGTDYTLTISSLQQEDFATYFCQQGNTLPTFGQGTKLEIK", "nM", 9.58],
  ["15G8-32 (humanized 15G8, VH3/Vk2) (antibody, human IgG4 S228P, kappa, V domains shown, Humanized IgG4 (S228P, L235E), kappa) VH: DVQLQGSGPGLVKPSETLSLTCSVTGYSITSGYYWNWIRQPPGKGLEWMGYISYDGSNNYNPSLKNRITISRDTSKNQFSLKLSSVTAADTATYYCAHGYSYYYAMDAWGQGTTVTVSS VL: DIQMTQSPSSLSASVGDRVTITCRTSQDISNYLNWYQQKPGKAVKLLISYTSRLHSGVPSRFSGSGSGTDYTLTISSLQPEDFATYFCQQGNTLPTFGQGTKLEIKR", "nM", 8.19],
  ["humanized 15G8 VH4/Vk2 (antibody, IgG4, V domains shown, Humanized IgG4 (S228P, L235E), kappa; tested as supernatant of transiently transfected HEK EBNA cells) VH: QVQLQGSGPGLVKPSETLSLTCSVTGYSITSGYYWNWIRQPPGKGLEWMGYISYDGSNNYNPSLKNRVTISRDTSKNQFSLKLSSVTAADTATYYCAHGYSYYYAMDAWGQGTTVTVSS VL: DIQMTQSPSSLSASVGDRVTITCRTSQDISNYLNWYQQKPGKAVKLLISYTSRLHSGVPSRFSGSGSGTDYTLTISSLQPEDFATYFCQQGNTLPTFGQGTKLEIK", "nM", 9.93],
  ["humanized 15G8 VH2/Vk4 (antibody, IgG4, V domains shown, Humanized IgG4 (S228P, L235E), kappa; tested as supernatant of transiently transfected HEK EBNA cells) VH: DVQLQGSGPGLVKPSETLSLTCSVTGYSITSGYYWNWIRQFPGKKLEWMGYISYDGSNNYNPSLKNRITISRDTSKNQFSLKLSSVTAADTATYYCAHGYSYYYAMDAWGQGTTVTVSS VL: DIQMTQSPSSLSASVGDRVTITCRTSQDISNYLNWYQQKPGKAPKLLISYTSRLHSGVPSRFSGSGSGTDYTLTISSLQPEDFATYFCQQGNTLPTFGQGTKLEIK", "nM", 14.2]
]}
